system: STK3 (human) (UniProt Q13188)
Sequence (Q13188 whole entry, looked up): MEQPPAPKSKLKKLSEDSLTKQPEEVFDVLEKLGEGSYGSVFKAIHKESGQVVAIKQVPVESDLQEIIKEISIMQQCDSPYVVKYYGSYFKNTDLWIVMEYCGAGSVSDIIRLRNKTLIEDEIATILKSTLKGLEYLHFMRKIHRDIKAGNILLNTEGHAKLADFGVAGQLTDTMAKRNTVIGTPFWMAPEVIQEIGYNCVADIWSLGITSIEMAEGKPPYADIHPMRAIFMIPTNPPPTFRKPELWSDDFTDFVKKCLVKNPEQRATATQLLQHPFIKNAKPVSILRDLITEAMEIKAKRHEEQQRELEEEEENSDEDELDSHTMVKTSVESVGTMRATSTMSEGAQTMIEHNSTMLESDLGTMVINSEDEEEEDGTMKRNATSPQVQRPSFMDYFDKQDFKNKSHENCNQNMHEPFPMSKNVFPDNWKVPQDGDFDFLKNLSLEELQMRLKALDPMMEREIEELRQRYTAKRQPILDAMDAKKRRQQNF
protocolSummary: radiometric filter-binding kinase assay
measurementContext: compound 1.0 µM
quantityKind: residual activity (%)

1. FC(F)(F)c1ccc(-c2ccc(Oc3cncc4sc(-c5nn[nH]n5)cc34)cc2)cc1
2. CN(C)C/C=C/C(=O)Nc1cccc(C(=O)Nc2ccc(Nc3nccc(-c4cccnc4)n3)cc2)c1
3. COc1ccc2c(c1)c1c3c(c4c5ccccc5n(C)c4c1n2CC(O)CN(C)C)C(=O)NC3=O (stereo not given)
Order the above molecules by increasing residual activity. List the labels, following the order given in the request.
3, 2, 1

I. CN1C(=O)[C@@H](Cc2c[nH]c3ccccc23)NC1=S
II. C=CC(=O)N1CCC[C@@H](n2nc(-c3ccc(Oc4ccccc4)cc3)c3c(N)ncnc32)C1
Hi there, can you help? I need to know whether I or II has lower measured residual activity. Identify your selection by its label.
II

Provenance of the data: the kinase profiling compilation of Christmann-Franck et al. (2016)
